- tested on: HDAC6 (Homo sapiens, UniProt Q9UBN7)
- Sequence (Q9UBN7 1-1215): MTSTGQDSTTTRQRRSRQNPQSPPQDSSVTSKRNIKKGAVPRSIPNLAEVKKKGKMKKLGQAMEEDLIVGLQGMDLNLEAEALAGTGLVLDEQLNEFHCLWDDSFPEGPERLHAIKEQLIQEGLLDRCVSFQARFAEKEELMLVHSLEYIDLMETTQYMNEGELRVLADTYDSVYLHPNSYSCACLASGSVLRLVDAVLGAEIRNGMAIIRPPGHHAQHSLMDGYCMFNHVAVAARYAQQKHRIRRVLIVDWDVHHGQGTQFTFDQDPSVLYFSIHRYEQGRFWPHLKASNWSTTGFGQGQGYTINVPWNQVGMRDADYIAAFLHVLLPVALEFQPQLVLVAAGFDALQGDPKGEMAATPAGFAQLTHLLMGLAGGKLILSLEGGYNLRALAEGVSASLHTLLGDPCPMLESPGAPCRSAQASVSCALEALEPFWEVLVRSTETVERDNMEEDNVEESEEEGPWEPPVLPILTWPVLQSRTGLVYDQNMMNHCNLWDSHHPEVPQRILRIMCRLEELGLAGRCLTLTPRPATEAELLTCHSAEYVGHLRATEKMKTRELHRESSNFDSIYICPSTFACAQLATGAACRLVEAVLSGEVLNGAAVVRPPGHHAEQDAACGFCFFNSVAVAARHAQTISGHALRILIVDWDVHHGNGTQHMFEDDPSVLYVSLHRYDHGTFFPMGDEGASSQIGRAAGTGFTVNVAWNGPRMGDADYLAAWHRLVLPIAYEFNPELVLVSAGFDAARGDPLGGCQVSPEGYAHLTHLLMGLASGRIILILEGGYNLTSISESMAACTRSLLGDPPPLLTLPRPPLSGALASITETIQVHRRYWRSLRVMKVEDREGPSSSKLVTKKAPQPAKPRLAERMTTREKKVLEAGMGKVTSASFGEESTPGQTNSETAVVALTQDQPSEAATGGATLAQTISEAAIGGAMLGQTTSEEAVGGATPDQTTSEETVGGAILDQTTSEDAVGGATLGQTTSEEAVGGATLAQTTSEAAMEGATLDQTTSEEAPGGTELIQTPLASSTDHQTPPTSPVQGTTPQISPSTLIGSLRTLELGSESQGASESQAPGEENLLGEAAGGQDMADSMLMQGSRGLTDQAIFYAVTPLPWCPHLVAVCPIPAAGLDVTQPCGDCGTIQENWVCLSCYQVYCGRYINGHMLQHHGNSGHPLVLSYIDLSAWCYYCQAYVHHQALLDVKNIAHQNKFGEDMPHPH
pIC50: −log10 of the molar value.

[
  {
    "molecule": "O=C(NO)c1ccc(CNC(=O)c2cn(CC3CC3)c3ccccc23)cc1 [Compound 10n]",
    "pIC50": 8.51
  }
]
